These data points were gathered from patent US20250059171A1.

System: SARS-CoV 3CLpro (Severe acute respiratory syndrome coronavirus) | Read-out: pIC50
Scale note: pIC50 = -log10(concentration in M).

Before answering, review these 3 worked examples.
Query: Please report the recorded pIC50 for `CC[C@H](C)[C@H](NC(=O)C1(F)CC1)C(=O)N1C[C@H](C(F)(F)F)C[C@H]1C(=O)NN(C[C@@H]1CCNC1=O)C(=O)[C@H](F)Cl` .
Result: 7.72

Query: Please report the recorded pIC50 for `CC[C@H](C)[C@H](NC(=O)C1(F)CC1)C(=O)N1C[C@H](C(F)(F)F)C[C@H]1C(=O)NN(C[C@@H]1CCNC1=O)C(=O)[C@@H](F)Cl` .
Result: 7.57

Query: Please report the recorded pIC50 for `CC1(C)[C@@H]2[C@@H](C(=O)NN(C[C@@H]3CCNC3=O)C(=O)[C@H](F)Cl)N(C(=O)/C=C/c3cc(C(F)(F)F)cc(C(F)(F)F)c3)C[C@@H]21` .
Result: 6.10

Further cases:
Query: Please report the recorded pIC50 for `CCC(C)(C)[C@H](NC(=O)C1(F)CC1)C(=O)N1C[C@@H]2CCC[C@@H]2[C@H]1C(=O)NN(C[C@@H]1CCNC1=O)C(=O)[C@H](F)Cl` .
Result: 7.82

Query: Please report the recorded pIC50 for `CC[C@H](C)[C@H](NC(=O)[C@@H](F)Cl)C(=O)N1C[C@@H]2CCC[C@@H]2[C@H]1C(=O)NN(C[C@H]1CCCNC1=O)C(=O)[C@@H](F)Cl` .
Result: 7.48

Query: Please report the recorded pIC50 for `CC(C)(C)[C@H](NC(=O)C(F)(F)F)C(=O)N1CC2(CC2)C[C@H]1C(=O)NN(C[C@@H]1CCNC1=O)C(=O)[C@H](F)Cl` .
Result: 7.85

Query: Please report the recorded pIC50 for `O=C1NCC[C@H]1CN(NC(=O)[C@@H]1[C@H]2CCC[C@H]2CN1C(=O)[C@@H](NC(=O)C(F)(F)F)C1CCC1)C(=O)[C@H](F)Cl` .
Result: 7.35

Query: Please report the recorded pIC50 for `CC[C@@H](C)[C@H](NC(=O)C(F)(F)F)C(=O)N1C[C@@H]2CCC[C@@H]2[C@H]1C(=O)NN(C[C@@H]1CCNC1=O)C(=O)[C@H](F)Cl` .
Result: 7.92

Query: Please report the recorded pIC50 for `CC[C@H](C)[C@H](NC(=O)[C@H](F)Cl)C(=O)N1C[C@H]2[C@@H]([C@H]1C(=O)NN(C[C@@H]1CCCNC1=O)C(=O)[C@H](F)Cl)C2(C)C` .
Result: 7.92

Query: Please report the recorded pIC50 for `CC[C@@H](C)[C@H](NC(=O)C(C)(F)F)C(=O)N1C[C@@H]2CCC[C@@H]2[C@H]1C(=O)NN(C[C@@H]1CCNC1=O)C(=O)[C@H](F)Cl` .
Result: 7.82

Query: Please report the recorded pIC50 for `CC[C@H](C)[C@H](NC(=O)C(Cl)Cl)C(=O)N1C[C@H]2[C@@H]([C@H]1C(=O)NN(C[C@@H]1CCNC1=O)C(=O)[C@H](F)Cl)C2(C)C` .
Result: 7.96

Query: Please report the recorded pIC50 for CC(C)(C)[C@H](NC(=O)C(F)(F)F)C(=O)N1C[C@H]2[C@@H]([C@H]1C(=O)NN(C[C@H]1CCCNC1=O)C(=O)[C@H](F)Cl)C2(C)C (single isomer, unassigned) [Example 163a] .
Result: 7.74

Query: Please report the recorded pIC50 for `CC[C@H](C)[C@H](NC(=O)C(F)F)C(=O)N1C[C@H]2[C@@H]([C@H]1C(=O)NN(C[C@@H]1CCNC1=O)C(=O)[C@@H](F)Cl)C2(C)C` .
Result: 7.70

====

Test target: HCoV-229E 3CLpro (Human coronavirus 229E, UniProt P0C6X1)
Sequence (P0C6X1 2966-3267): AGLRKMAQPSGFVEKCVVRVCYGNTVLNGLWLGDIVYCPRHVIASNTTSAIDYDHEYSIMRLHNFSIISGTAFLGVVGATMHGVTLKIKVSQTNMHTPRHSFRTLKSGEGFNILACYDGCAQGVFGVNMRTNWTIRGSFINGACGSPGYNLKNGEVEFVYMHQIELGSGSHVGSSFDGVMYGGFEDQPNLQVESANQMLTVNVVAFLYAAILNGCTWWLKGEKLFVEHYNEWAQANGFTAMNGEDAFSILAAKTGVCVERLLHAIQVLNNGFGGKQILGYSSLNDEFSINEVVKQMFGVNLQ
Readout type: IC50
Don't forget the unit after the value.

Query: Requested read-out IC50, target or system HCoV-229E 3CLpro (Human coronavirus 229E, UniProt P0C6X1), entry `CC[C@H](C)[C@H](NC(C)=O)C(=O)N1C[C@@H]2CCC[C@@H]2[C@H]1C(=O)NN(C[C@@H]1CCNC1=O)C(=O)[C@H](F)Cl`
Result: 45 nM

Query: Requested read-out IC50, target or system HCoV-229E 3CLpro (Human coronavirus 229E, UniProt P0C6X1), entry `CC[C@H](C)[C@H](NC(=O)C(C)C)C(=O)N1C[C@H]2[C@@H]([C@H]1C(=O)NN(C[C@@H]1CCNC1=O)C(=O)[C@H](F)Cl)C2(C)C`
Result: 24 nM

Query: Requested read-out IC50, target or system HCoV-229E 3CLpro (Human coronavirus 229E, UniProt P0C6X1), entry `CC[C@@H](C)[C@H](NC(=O)C1CC1)C(=O)N1C[C@H]2[C@@H]([C@H]1C(=O)NN(C[C@@H]1CCNC1=O)C(=O)[C@H](F)Cl)C2(C)C`
Result: 27 nM

====

System: HCoV-229E 3CLpro (Human coronavirus 229E, UniProt P0C6X1) | Read-out: pIC50
Scale note: pIC50 = -log10(concentration in M).

Before answering, review these 4 worked examples.
Query: Requested read-out pIC50, target or system HCoV-229E 3CLpro (Human coronavirus 229E, UniProt P0C6X1), entry `CCC(CC)[C@H](NC(=O)C1(F)CC1)C(=O)N1C[C@H]2[C@@H]([C@H]1C(=O)NN(C[C@@H]1CCNC1=O)C(=O)[C@@H](F)Cl)C2(C)C`
Result: 7.40

Query: Requested read-out pIC50, target or system HCoV-229E 3CLpro (Human coronavirus 229E, UniProt P0C6X1), entry `CCC(CC)[C@H](NC(=O)C(F)F)C(=O)N1CC(C)(C)C[C@H]1C(=O)NN(C[C@@H]1CCNC1=O)C(=O)[C@H](F)Cl`
Result: 7.46

Query: Requested read-out pIC50, target or system HCoV-229E 3CLpro (Human coronavirus 229E, UniProt P0C6X1), entry CCC(C)(C)[C@H](NC(=O)C1CC1)C(=O)N1C[C@H]2[C@@H]([C@H]1C(=O)NN(C[C@@H]1CCCNC1=O)C(=O)[C@H](F)Cl)C2(C)C [Example 169a]
Result: 7.25

Query: Requested read-out pIC50, target or system HCoV-229E 3CLpro (Human coronavirus 229E, UniProt P0C6X1), entry `CC(C)(C)[C@H](NC(=O)[C@H]1CC1(F)F)C(=O)N1C[C@@H]2CCC[C@@H]2[C@H]1C(=O)NN(C[C@@H]1CCNC1=O)C(=O)[C@@H](F)Cl`
Result: 7.26

Further cases:
Query: Requested read-out pIC50, target or system HCoV-229E 3CLpro (Human coronavirus 229E, UniProt P0C6X1), entry `CC(C)(C)[C@H](NC(=O)[C@@H]1CC1(F)F)C(=O)N1C[C@@H]2CCC[C@@H]2[C@H]1C(=O)NN(C[C@@H]1CCNC1=O)C(=O)[C@H](F)Cl`
Result: 7.52

====

Test target: HCoV-229E 3CLpro (Human coronavirus 229E, UniProt P0C6X1)
Procedure summary: HCoV-229E 3CLpro inhibition assay (FRET)
Type: biochemical
Readout type: IC50 (nM)
All answers are understood in nM, so give the number only.

Before answering, review these 4 worked examples.
Query: Please report the recorded IC50 for C[C@H]1C[C@@H](C(=O)NN(C[C@@H]2CCNC2=O)C(=O)[C@H](F)Cl)N(C(=O)[C@@H](NC(=O)C(F)(F)F)C(C)(C)C)C1 [Example 27] .
Result: 29

Query: Please report the recorded IC50 for CC[C@H](C)[C@H](NC(=O)[C@@H](F)Cl)C(=O)N1CC(C)(C)C[C@H]1C(=O)NN(C[C@@H]1CCNC1=O)C(=O)[C@@H](F)Cl [Example 187] .
Result: 36

Query: Please report the recorded IC50 for CC[C@H](C)[C@H](NC(=O)C1CC1(F)F)C(=O)N1C[C@H]2[C@@H]([C@H]1C(=O)NN(C[C@@H]1CCNC1=O)C(=O)[C@@H](F)Cl)C2(C)C (mixture of isomers) [Example 111] .
Result: 37

Query: Please report the recorded IC50 for CC[C@H](C)[C@H](NC(=O)C1(F)CC1)C(=O)N1C[C@H]2[C@@H]([C@H]1C(=O)NN(C[C@H]1CCCNC1=O)C(=O)[C@H](F)Cl)C2(C)C [Example 166b] .
Result: 51

Moving on to the next compound.
Query: Please report the recorded IC50 for CC[C@@H](C)[C@H](NC(=O)[C@H](C)F)C(=O)N1C[C@H]2[C@@H]([C@H]1C(=O)NN(C[C@@H]1CCNC1=O)C(=O)[C@@H](F)Cl)C2(C)C [Example 122] .
Result: 46

====

Test target: SARS-CoV-2 3CLpro (Severe acute respiratory syndrome coronavirus 2, UniProt P0DTD1)
Procedure summary: biochemical
Criterion: IC50 strictly less than 0.01 µM. Met: Met. Not met: Not met.

See these solved cases before continuing.
Query: Is it true that IC50 reported for `CC[C@H](C)[C@H](NC(=O)C(F)F)C(=O)N1C[C@H]2[C@@H]([C@H]1C(=O)NN(C[C@@H]1CCCNC1=O)C(=O)[C@H](F)Cl)C2(C)C` is less than 0.01 µM?
Result: Not met

Query: Is it true that IC50 reported for `CCC(C)(C)[C@H](NC(=O)[C@@H]1CC1(F)F)C(=O)N1C[C@@H]2CCC[C@@H]2[C@H]1C(=O)NN(C[C@@H]1CCNC1=O)C(=O)[C@@H](F)Cl` is less than 0.01 µM?
Result: Not met

Query: Is it true that IC50 reported for `CC[C@H](C)[C@H](NC(=O)C1CC1)C(=O)N1C[C@@H]2CCC[C@@H]2[C@H]1C(=O)NN(C[C@@H]1CCNC1=O)C(=O)[C@H](F)Cl` is less than 0.01 µM?
Result: Met

Turning to the following compound.
Query: Is it true that IC50 reported for `CC[C@H](C)[C@H](NC(=O)C1(F)CC1)C(=O)N1C[C@H](C(F)(F)F)C[C@H]1C(=O)NN(C[C@@H]1CCNC1=O)C(=O)[C@@H](F)Cl` is less than 0.01 µM?
Result: Not met
